CC50 at 24 h reference
# Assay text: in vitro
# Test context: rat, gh3-tre-luc cells, AC50 (uM) modified / 1000
Respond numerically; units are µM and should not be typed.

query: I am curious: what CC50 at 24 h value has been reported for CCCCCCCCCCCC[N+](C)(C)Cc1ccccc1 [Benzyldimethyldodecylammonium chloride] ?
result: 10.6

query: Consider next the molecule "CCc1cc(OC)c(C[C@H](C)N)cc1OC" in the same way.
result: 35.7

query: Consider next the molecule CCCCCCCCCCCC[N+](C)(C)CCOc1ccccc1 [Domiphen bromide] in the same way.
result: 10.6

Moving on to the next molecule.
query: I am curious: what CC50 at 24 h value has been reported for O=[N+]([O-])/C=C/c1ccccc1 [(E)-beta-Nitrostyrene] ?
result: 13.7

====

# System: GH3-TRE-Luc cell line
# Test context: read-out: AC50 (uM) modified / 1000; Tox21_110001=Tox21_111695; viability, 1 nM T3 present, 24 h
Measured metric: CC50 (µM)
Respond numerically; units are µM and should not be typed.

query: I am curious: what CC50 value has been reported for CN1[C@@H]2CC[C@H]1C[C@@H](OC(c1ccccc1)c1ccccc1)C2 [Benztropine] ?
result: 13.8

====

# Assay text: in vitro
# Test context: rat, gh3-tre-luc cells, AC50 (uM) modified / 1000, Tox21_110001=Tox21_200283; viability, 1 nM T3 present, 24 h
Measured metric: CC50 at 24 h

query: I am curious: what CC50 at 24 h value has been reported for O=NN(CCO)CCO [N-Nitrosodiethanolamine] ?
result: > 90 µM

====

# Assay text: in vitro
# Test context: rat, gh3-tre-luc cells, AC50 (uM) modified / 1000, Tox21_110001=Tox21_201145; viability, 1 nM T3 present, 24 h
Measured metric: CC50 at 24 h

query: I am curious: what CC50 at 24 h value has been reported for CC(C)OC(=O)Cc1ccccc1 [Isopropyl phenylacetate] ?
result: > 90 µM

====

# System: GH3-TRE-Luc cell line
# Test context: read-out: AC50 (uM) modified / 1000; Tox21_110001=Tox21_202922; viability, 1 nM T3 present, 24 h
Measured metric: CC50 (µM)
Respond numerically; units are µM and should not be typed.

query: I am curious: what CC50 value has been reported for COc1cc([C@@H]2c3cc4c(cc3[C@H](O)[C@H]3COC(=O)[C@H]23)OCO4)cc(OC)c1OC [Podofilox] ?
result: 0.0227

====

# Assay text: in vitro
# Test context: rat, gh3-tre-luc cells, AC50 (uM) modified / 1000, Tox21_110001=Tox21_300861; viability, 1 nM T3 present, 24 h
Measured metric: CC50 at 24 h

query: I am curious: what CC50 at 24 h value has been reported for "CCOP(=S)(OCC)SCCSCC" ?
result: > 40 µM

====

CC50 at 24 h reference
# Assay text: in vitro
# Test context: rat, gh3-tre-luc cells, AC50 (uM) modified / 1000

Look over these answered cases.
query: I am curious: what CC50 at 24 h value has been reported for "CC(=O)CCC(C)C" ?
result: > 90 µM

query: Consider next the molecule C=CC(=O)OCCOCCOCCOCCOC(=O)C=C [Tetraethylene glycol diacrylate] in the same way.
result: 17.7 µM

query: Consider next the molecule "Cc1cccc(Nc2ccccc2)c1" in the same way.
result: > 90 µM

query: Consider next the molecule O=C(Oc1ccccc1)Oc1ccccc1 [Diphenylcarbonate] in the same way.
result: > 90 µM

query: Consider next the molecule CC(C)(C)Cl [t-Butylchloride] in the same way.
result: > 100 µM

Moving on to the next molecule.
query: I am curious: what CC50 at 24 h value has been reported for "CC1CCCC1" ?
result: > 90 µM
